test: Aqueous solubility of pioglitazone salts derived from strong acids or bases; format: physicochemical; details: aqueous solubility of the salt; * = the salt is dissolved in water to form a blurred solution
Structures can show the parent of a compound that is named as a salt.
Quantity name: soluble in H2O

CCc1ccc(CCOc2ccc(CC3SC(=O)NC3=O)cc2)nc1 (stereo not shown) [Choline salt]	yes*
CCc1ccc(CCOc2ccc(CC3SC(=O)NC3=O)cc2)nc1 (stereo not shown) [Ca salt]	yes*
CCc1ccc(CCOc2ccc(CC3SC(=O)NC3=O)cc2)nc1 (stereo not shown) [Mesylate]	Yes
CCc1ccc(CCOc2ccc(CC3SC(=O)NC3=O)cc2)nc1 (stereo not shown) [Hydrobromide]	No
